// reported IC50 per item
Test Summary: Inhibition of YopH in Yersinia pseudotuberculosis YPIII PIB102-Elux using p-nitrophenyl phosphate as substrate measured after 3 hrs 15 mins by phosphatase enzyme assay
Parameter: IC50 (µM)

[
  {
    "Compound": "Oc1ccc([C@@H]2c3c(O)cc(O)cc3[C@@H]3c4c(cc(O)c5c4[C@@H]2[C@H](c2ccc(O)cc2)[C@H]5c2cc(O)cc4c2[C@@H](c2cc(O)cc(O)c2)[C@H](c2ccc(O)cc2)O4)O[C@H]3c2ccc(O)cc2)cc1 [Vaticanol B]",
    "Val": 3.3
  },
  {
    "Compound": "Oc1ccc([C@@H]2c3c(O)cc(O)cc3[C@@H]3c4c(cc(O)cc4[C@H]2[C@@H]2c4cc(O)cc5c4[C@@H](c4cc(O)cc(O)c4[C@H]2c2ccc(O)cc2)[C@H](c2ccc(O)cc2)O5)O[C@H]3c2ccc(O)cc2)cc1",
    "Val": 2.9
  },
  {
    "Compound": "CN[C@@H]1[C@H](O[C@H]2[C@H](O[C@H]3[C@H](O)[C@@H](O)[C@H](N=C(N)N)[C@@H](O)[C@@H]3N=C(N)N)O[C@@H](C)[C@]2(O)C=O)O[C@@H](CO)[C@H](O)[C@H]1O [STREPTOMYCIN]",
    "Val": 31
  },
  {
    "Compound": "OC[C@H]1O[C@@H](Oc2cc3c4c(c2)[C@@H]([C@@H]2c5cc(O)cc6c5[C@@H](c5cc(O)cc(O)c5[C@H]2c2ccc(O)cc2)[C@H](c2ccc(O)cc2)O6)[C@H](c2ccc(O)cc2)c2c(O)cc(O)cc2[C@H]4[C@H](c2ccc(O)cc2)O3)[C@H](O)[C@@H](O)[C@@H]1O [VATALBINOSIDE A]",
    "Val": 4.5
  }
]
